Biological target: CFTR-mediated chloride transport in human intestinal epithelial enteroid cells (Homo sapiens, UniProt P13569)
Sequence (P13569 with tags, fused parts or gaps DEL508-508): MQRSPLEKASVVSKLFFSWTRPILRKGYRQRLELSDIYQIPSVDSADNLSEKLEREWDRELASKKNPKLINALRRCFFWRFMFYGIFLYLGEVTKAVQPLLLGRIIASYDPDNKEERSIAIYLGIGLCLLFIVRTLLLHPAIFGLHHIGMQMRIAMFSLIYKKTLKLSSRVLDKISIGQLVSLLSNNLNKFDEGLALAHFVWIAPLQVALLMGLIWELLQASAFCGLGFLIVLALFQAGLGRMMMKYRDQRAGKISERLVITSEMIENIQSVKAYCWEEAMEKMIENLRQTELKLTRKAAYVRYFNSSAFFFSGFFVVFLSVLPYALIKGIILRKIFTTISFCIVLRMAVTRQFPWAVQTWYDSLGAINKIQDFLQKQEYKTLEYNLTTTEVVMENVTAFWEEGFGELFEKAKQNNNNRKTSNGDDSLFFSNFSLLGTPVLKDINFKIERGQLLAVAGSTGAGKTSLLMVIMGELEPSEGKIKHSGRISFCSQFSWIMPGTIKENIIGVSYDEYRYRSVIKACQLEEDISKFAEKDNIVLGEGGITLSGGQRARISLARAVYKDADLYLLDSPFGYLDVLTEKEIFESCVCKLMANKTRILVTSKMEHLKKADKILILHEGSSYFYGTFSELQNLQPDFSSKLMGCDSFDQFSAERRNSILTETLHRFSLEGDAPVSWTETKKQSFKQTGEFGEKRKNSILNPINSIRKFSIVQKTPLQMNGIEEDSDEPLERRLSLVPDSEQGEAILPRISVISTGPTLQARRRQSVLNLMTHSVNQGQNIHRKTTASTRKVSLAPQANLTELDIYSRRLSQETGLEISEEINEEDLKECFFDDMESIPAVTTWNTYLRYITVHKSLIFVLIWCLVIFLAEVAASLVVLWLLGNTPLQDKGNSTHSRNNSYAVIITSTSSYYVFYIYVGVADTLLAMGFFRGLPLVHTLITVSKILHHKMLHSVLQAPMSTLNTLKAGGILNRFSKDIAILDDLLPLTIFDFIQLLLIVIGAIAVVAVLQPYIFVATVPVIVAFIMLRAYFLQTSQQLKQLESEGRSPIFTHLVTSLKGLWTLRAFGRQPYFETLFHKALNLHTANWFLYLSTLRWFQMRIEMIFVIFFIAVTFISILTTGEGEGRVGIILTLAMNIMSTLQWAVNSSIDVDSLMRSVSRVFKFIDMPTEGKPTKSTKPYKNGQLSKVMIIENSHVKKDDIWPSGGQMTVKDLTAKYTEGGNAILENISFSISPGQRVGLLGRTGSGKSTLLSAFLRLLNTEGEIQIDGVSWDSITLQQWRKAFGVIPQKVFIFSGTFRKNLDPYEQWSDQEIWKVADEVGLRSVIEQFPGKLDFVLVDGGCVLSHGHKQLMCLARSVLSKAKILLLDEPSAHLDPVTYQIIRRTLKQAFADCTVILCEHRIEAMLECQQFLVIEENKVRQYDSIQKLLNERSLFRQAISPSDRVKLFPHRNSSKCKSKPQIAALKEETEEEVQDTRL
Experiment: Membrane potential dye, Enteroid Assay A
Format: cell-based
Settings: Enteroid Assay A
MEASUREMENT_NAME: Ent. A Max Activity (%)

Cc1cccc(C)c1-c1cc2nc(n1)NS(=O)(=O)c1cccc(c1)C(=O)N1CCN(C(C)C)C[C@H](C1)O2 [Compound 75]
+++ (+++ is >600%)
Cc1cccc(C)c1-c1cc2nc(n1)NS(=O)(=O)N1CCc3ccc(cc31)C(=O)N1Cc3ccccc3[C@@H](O2)[C@H]1CC(C)C [Compound 250]
++ (++ is 30-60%)
Cc1cccc(C)c1-c1cc2nc(n1)NS(=O)(=O)c1cccc(c1)C(=O)N1CCN(C3CCC4CC43)C[C@H](C1)O2 (stereo partly shown) [Compound 15]
+++ (+++ is >600%)
Cc1cccc(C)c1-c1cc2nc(n1)NS(=O)(=O)c1cccc(c1)C(=O)N1CCC(CCCO2)C1 (stereo not shown) [Compound 355]
++ (++ is 30-60%)

Data credit: patent US20240018161A1
